Consider the following compounds and their measured pIC50 readings.
target system: hNotch1ICD (Homo sapiens, UniProt P46531)
Construct: pLV[Tet]-Puro-TRE3G>Notch1-ICD; expressed in transfected cells; host or cells: 293A cells
Sequence (P46531 1754-2555 limits assumed): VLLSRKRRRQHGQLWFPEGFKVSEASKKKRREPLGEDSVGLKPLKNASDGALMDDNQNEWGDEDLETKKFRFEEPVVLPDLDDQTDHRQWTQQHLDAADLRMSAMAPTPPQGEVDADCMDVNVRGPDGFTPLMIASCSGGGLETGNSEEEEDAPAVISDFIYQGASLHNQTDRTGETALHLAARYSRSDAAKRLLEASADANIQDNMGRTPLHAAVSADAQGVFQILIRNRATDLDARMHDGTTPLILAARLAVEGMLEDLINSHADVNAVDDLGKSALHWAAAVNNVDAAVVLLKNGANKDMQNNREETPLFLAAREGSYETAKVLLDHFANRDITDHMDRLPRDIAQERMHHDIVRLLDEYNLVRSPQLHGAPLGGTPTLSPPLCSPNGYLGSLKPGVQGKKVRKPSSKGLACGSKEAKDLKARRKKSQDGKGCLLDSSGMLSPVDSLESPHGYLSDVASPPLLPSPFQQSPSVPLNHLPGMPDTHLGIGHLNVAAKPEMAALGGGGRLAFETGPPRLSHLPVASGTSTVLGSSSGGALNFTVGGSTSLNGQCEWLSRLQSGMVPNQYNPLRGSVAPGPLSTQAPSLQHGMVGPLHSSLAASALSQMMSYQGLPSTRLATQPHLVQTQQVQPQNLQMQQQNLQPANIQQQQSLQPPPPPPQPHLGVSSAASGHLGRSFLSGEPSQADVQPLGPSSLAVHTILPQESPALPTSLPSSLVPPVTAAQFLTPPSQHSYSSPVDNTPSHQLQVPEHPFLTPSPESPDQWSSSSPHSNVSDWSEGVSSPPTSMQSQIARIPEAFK
assay procedure: Notch1 Reporter Assay (Dox-inducible Notch1-ICD, CSL-responsive luciferase in 293A cells)
Assay type: cell-based
protocol conditions: value printed in the synthesis heading of the compound; read-out: Notch1 Reporter Assay IC50
pIC50: −log10 of the molar value. Where a name gives a salt, the structure may show the parent alone.

{"compound": "Cc1cccnc1NC(=O)c1c(O)c2ccc(N3CCN(C)CC3)cc2n(CC(C)C)c1=O [SSTN-580_TFA salt]", "pIC50": 4.88}
{"compound": "CC(C)Cn1c(=O)c(C(=O)Nc2cc(F)cc(N3CCN(C)CC3)c2)c(O)c2ccccc21 [SSTN-583]", "pIC50": 5.09}
{"compound": "CC(C)Cn1c(=O)c(C(=O)Nc2cccc(F)c2)c(O)c2c(N3CCN(C)CC3)cccc21 [SSTN-588]", "pIC50": 4.99}
{"compound": "CC(C)Cn1c(=O)c(C(=O)Nc2cccc(F)c2N2CCN(C)CC2)c(O)c2ccccc21 [SSTN-581_Formate salt]", "pIC50": 5.11}
{"compound": "CC(C)Cn1c(=O)c(C(=O)Nc2cc(F)cc(N3CCN(C)CC3)c2)c(O)c2ccccc21 [SSTN-583_HCl salt]", "pIC50": 5.20}
{"compound": "CC(C)Cn1c(=O)c(C(=O)Nc2cccc(F)c2)c(O)c2c(N3CCNCC3)cccc21 [SSTN-587_HCl salt]", "pIC50": 5.42}
{"compound": "CC(C)Cn1c(=O)c(C(=O)Nc2ccc(N3CCN(C)CC3)c(F)c2)c(O)c2ccccc21 [SSTN-572]", "pIC50": 4.75}
{"compound": "CC(C)Cn1c(=O)c(C(=O)Nc2cccc(F)c2)c(O)c2cc(N3CCN(C)CC3)ccc21 [SSTN-577_HCl salt]", "pIC50": 5.19}
{"compound": "CC(C)Cn1c(=O)c(C(=O)Nc2ccccc2N2CCN(C)CC2)c(O)c2ccccc21 [SSTN-568]", "pIC50": 4.67}
{"compound": "Cc1cccnc1NC(=O)c1c(O)c2ccc(N3CCN(C)CC3)cc2n(CC(C)C)c1=O [SSTN-580_HCl salt]", "pIC50": 4.85}
{"compound": "CC(C)Cn1c(=O)c(C(=O)Nc2cc(F)ccc2N2CCN(C)CC2)c(O)c2ccccc21 [SSTN-571_HCl salt]", "pIC50": 5.10}
{"compound": "CC(C)Cn1c(=O)c(C(=O)Nc2ccc(F)cc2N2CCN(C)CC2)c(O)c2ccccc21 [SSTN-570_HCl salt]", "pIC50": 5.25}
{"compound": "CC(C)Cn1c(=O)c(C(=O)Nc2ccc(N3CCN(C)CC3)c(F)c2)c(O)c2ccccc21 [SSTN-572_HCl salt]", "pIC50": 5.47}
{"compound": "CC(C)Cn1c(=O)c(C(=O)Nc2ccc(F)c(N3CCN(C)CC3)c2)c(O)c2ccccc21 [SSTN-584_Formate salt]", "pIC50": 5.34}
{"compound": "CC(C)Cn1c(=O)c(C(=O)Nc2ccc(N3CCN(C)CC3)cc2)c(O)c2ccccc21 [SSTN-569]", "pIC50": 5.07}
{"compound": "Cc1cccnc1NC(=O)c1c(O)c2cc(N3CCN(C)CC3)ccc2n(CC(C)C)c1=O", "pIC50": 4.74}
{"compound": "CC(C)Cn1c(=O)c(C(=O)Nc2cc(F)c(N3CCN(C)CC3)c(F)c2)c(O)c2ccccc21 [SSTN-582_HCl salt]", "pIC50": 5.72}
{"compound": "CC(C)Cn1c(=O)c(C(=O)Nc2ccc(N3CCN(C)CC3)cc2)c(O)c2ccccc21 [SSTN-569_HCl salt]", "pIC50": 5.31}
{"compound": "CC(C)Cn1c(=O)c(C(=O)Nc2cccc(F)c2)c(O)c2cc(N3CCN(C)CC3)ccc21 [SSTN-577]", "pIC50": 5.01}
{"compound": "CC(C)Cn1c(=O)c(C(=O)Nc2cccc(F)c2)c(O)c2c(N3CCN(C)CC3)cccc21 [SSTN-588_HCl salt]", "pIC50": 5.01}
{"compound": "CC(C)Cn1c(=O)c(C(=O)Nc2ccc(F)c(N3CCN(C)CC3)c2)c(O)c2ccccc21 [SSTN-584_HCl salt]", "pIC50": 5.22}
{"compound": "CC(C)Cn1c(=O)c(C(=O)Nc2ccccc2N2CCN(C)CC2)c(O)c2ccccc21 [SSTN-568_HCl salt]", "pIC50": 5.17}
{"compound": "CC(C)Cn1c(=O)c(C(=O)Nc2cccc(F)c2N2CCN(C)CC2)c(O)c2ccccc21 [SSTN-581_HCl salt]", "pIC50": 5.11}
{"compound": "CC(C)Cn1c(=O)c(C(=O)Nc2ccc(F)cc2N2CCN(C)CC2)c(O)c2ccccc21 [SSTN-570]", "pIC50": 5.19}

Where do the numbers come from? From patent US20230203003A1.
